System: PC-3
Experiment: NCI tumour cell line growth inhibition, 48 h
Calls of active or inactive are those of the source. Cut-off read from the data, not from the text of the source: active = GI50 up to about 1.1 µM and inactive = higher.
Would you kindly list GI50 for each of these compounds?

Dear colleague, could you send me GI50 for each of the items below? Thanks.
1. CCNC1=C(NC(=O)CC)C(=O)c2ccccc2C1=O
2. COc1cccc2c1cc([N+](=O)[O-])c1c(C(=O)O)cc3c(c12)OCO3
3. O=C1C(=O)c2ccccc2C=C1[N+](=O)[O-]

Result:
1: 42.6 µM (inactive); 2: 46.5 µM (inactive); 3: 48.2 µM (inactive)

Task: Which GI50 is listed for "C1=Cc2ccccc2C1.C=C(C)c1ccccc1.[N-]=[N+]=Nc1ccccc1" ?
Result: > 100 µM (inactive)
